Every entry's value here was drawn from patent US20230210831A1.

Listed here: items and their measured Number of revertant colonies WP2uvrA.
# Test system: Escherichia coli WP2uvrA
# measurement_protocol: Ames test (reverse mutation test), WP2uvrA
# Type: cell-based
# stated_conditions: S9 Mix -; dose 62 µg/plate
I only need the number, thanks.

Here are 3 compounds together with their reported answers.
• Nc1cc(-c2cccc(OCC(F)(F)F)c2)n(-c2ccc(F)cc2)n1 [Metabolite E] = 27
• Nc1cc(-c2cccc(OC(F)(F)F)c2)n(-c2cccc(F)c2)n1 [Metabolite G] = 14
• Cc1ccc(-n2nc(N)cc2-c2cccc(OCC(F)(F)F)c2)cc1 [Metabolite F] = 19

Noted Number of revertant colonies WP2uvrA for CC(C)(OCc1cc(F)cc(-c2cc(N)nn2-c2ccc(F)cc2)c1)C(F)(F)F [Metabolite D] , tested on Escherichia coli WP2uvrA: 21

Noted Number of revertant colonies WP2uvrA for Cc1cccc(-n2nc(N)cc2-c2cccc(OC(F)(F)F)c2)c1 [Metabolite H] , tested on Escherichia coli WP2uvrA: 20

---

Listed here: items and their measured Number of revertant colonies WP2uvrA.
# Tested on: Escherichia coli WP2uvrA
# measurement_protocol: Ames test (reverse mutation test), WP2uvrA
# Type: cell-based
# stated_conditions: S9 Mix -; dose 185 µg/plate

Here are 3 molecules together with their reported answers.
• Cc1cccc(-n2nc(N)cc2-c2cccc(OC(F)(F)F)c2)c1 [Metabolite H] = 20
• CC(C)(OCc1cc(F)cc(-c2cc(N)nn2-c2ccc(F)cc2)c1)C(F)(F)F [Metabolite D] = 22
• Cc1ccc(-n2nc(N)cc2-c2cccc(OCC(F)(F)F)c2)cc1 [Metabolite F] = 13

The molecule identified as Nc1cc(-c2cccc(OC(F)(F)F)c2)n(-c2cccc(F)c2)n1 [Metabolite G] registered its Number of revertant colonies WP2uvrA at 15

The molecule identified as Nc1cc(-c2cccc(OCC(F)(F)F)c2)n(-c2ccc(F)cc2)n1 [Metabolite E] registered its Number of revertant colonies WP2uvrA at 22

---

Listed here: items and their measured Number of revertant colonies WP2uvrA.
# Tested on: Escherichia coli WP2uvrA
# measurement_protocol: Ames test (reverse mutation test), WP2uvrA
# Format: cell-based
# stated_conditions: S9 Mix +; dose 556 µg/plate

Here are 2 compounds together with their reported answers.
* Nc1cc(-c2cccc(OCC(F)(F)F)c2)n(-c2ccc(F)cc2)n1 [Metabolite E] | 19
* Cc1cccc(-n2nc(N)cc2-c2cccc(OC(F)(F)F)c2)c1 [Metabolite H] | 20

The compound identified as Nc1cc(-c2cccc(OC(F)(F)F)c2)n(-c2cccc(F)c2)n1 [Metabolite G] registered its Number of revertant colonies WP2uvrA at 14

The compound identified as Cc1ccc(-n2nc(N)cc2-c2cccc(OCC(F)(F)F)c2)cc1 [Metabolite F] registered its Number of revertant colonies WP2uvrA at 24

---

# Test system: Salmonella typhimurium TA98
# measurement_protocol: Ames test (reverse mutation test), TA98
# Format: cell-based
# stated_conditions: S9 Mix +; dose 185 µg/plate
Listed here: items and their measured Number of revertant colonies TA98.
I only need the number, thanks.

Here are 3 molecules together with their reported answers.
• Cc1cccc(-n2nc(N)cc2-c2cccc(OC(F)(F)F)c2)c1 [Metabolite H] = 85
• Nc1cc(-c2cccc(OC(F)(F)F)c2)n(-c2cccc(F)c2)n1 [Metabolite G] = 45
• Nc1cc(-c2cccc(OCC(F)(F)F)c2)n(-c2ccc(F)cc2)n1 [Metabolite E] = 268

Switching to the query record.
Noted Number of revertant colonies TA98 for Cc1ccc(-n2nc(N)cc2-c2cccc(OCC(F)(F)F)c2)cc1 [Metabolite F] , tested on Salmonella typhimurium TA98: 287

---

# System: Salmonella typhimurium TA98
# measurement_protocol: Ames test (reverse mutation test), TA98
# Format: cell-based
# stated_conditions: S9 Mix +; dose 6.9 µg/plate
recorded_endpoint: Number of revertant colonies TA98
I only need the number, thanks.

Here are 3 compounds together with their reported answers.
* Cc1ccc(-n2nc(N)cc2-c2cccc(OCC(F)(F)F)c2)cc1 [Metabolite F] | 218
* Cc1cccc(-n2nc(N)cc2-c2cccc(OC(F)(F)F)c2)c1 [Metabolite H] | 61
* Nc1cc(-c2cccc(OC(F)(F)F)c2)n(-c2cccc(F)c2)n1 [Metabolite G] | 63

The compound identified as Nc1cc(-c2cccc(OCC(F)(F)F)c2)n(-c2ccc(F)cc2)n1 [Metabolite E] registered its Number of revertant colonies TA98 at 1310

---

# Test system: Salmonella typhimurium TA1537
# measurement_protocol: Ames test (reverse mutation test), TA1537
# Type: cell-based
# stated_conditions: S9 Mix +; dose 2.3 µg/plate
recorded_endpoint: Number of revertant colonies TA1537
I only need the number, thanks.

Here are 3 compounds together with their reported answers.
- Cc1cccc(-n2nc(N)cc2-c2cccc(OC(F)(F)F)c2)c1 [Metabolite H]: 11
- Nc1cc(-c2cccc(OC(F)(F)F)c2)n(-c2cccc(F)c2)n1 [Metabolite G]: 13
- Cc1ccc(-n2nc(N)cc2-c2cccc(OCC(F)(F)F)c2)cc1 [Metabolite F]: 41

Switching to the query record.
The compound identified as Nc1cc(-c2cccc(OCC(F)(F)F)c2)n(-c2ccc(F)cc2)n1 [Metabolite E] registered its Number of revertant colonies TA1537 at 65

---

Listed here: items and their measured Number of revertant colonies TA100.
# Tested on: Salmonella typhimurium TA100
# measurement_protocol: Ames test (reverse mutation test), TA100
# Assay type: cell-based
# stated_conditions: S9 Mix +; dose 2.3 µg/plate

* Nc1cc(-c2cccc(OCC(F)(F)F)c2)n(-c2ccc(F)cc2)n1 [Metabolite E] | 1338

The compound identified as Cc1ccc(-n2nc(N)cc2-c2cccc(OCC(F)(F)F)c2)cc1 [Metabolite F] registered its Number of revertant colonies TA100 at 553

The compound identified as Cc1cccc(-n2nc(N)cc2-c2cccc(OC(F)(F)F)c2)c1 [Metabolite H] registered its Number of revertant colonies TA100 at 449

The compound identified as Nc1cc(-c2cccc(OC(F)(F)F)c2)n(-c2cccc(F)c2)n1 [Metabolite G] registered its Number of revertant colonies TA100 at 153

---

# System: Escherichia coli WP2uvrA
# measurement_protocol: Ames test (reverse mutation test), WP2uvrA
# Format: cell-based
# stated_conditions: S9 Mix -; dose 5000 µg/plate
recorded_endpoint: Number of revertant colonies WP2uvrA
I only need the number, thanks.

• CC(C)(OCc1cc(F)cc(-c2cc(N)nn2-c2ccc(F)cc2)c1)C(F)(F)F [Metabolite D] = 20
• Cc1ccc(-n2nc(N)cc2-c2cccc(OCC(F)(F)F)c2)cc1 [Metabolite F] = 5
• Cc1cccc(-n2nc(N)cc2-c2cccc(OC(F)(F)F)c2)c1 [Metabolite H] = 8
• Nc1cc(-c2cccc(OC(F)(F)F)c2)n(-c2cccc(F)c2)n1 [Metabolite G] = 6

Switching to the query record.
The compound identified as Nc1cc(-c2cccc(OCC(F)(F)F)c2)n(-c2ccc(F)cc2)n1 [Metabolite E] registered its Number of revertant colonies WP2uvrA at 7

---

# Test system: Escherichia coli WP2uvrA
# measurement_protocol: Ames test (reverse mutation test), WP2uvrA
# Type: cell-based
# stated_conditions: S9 Mix -; dose 2.3 µg/plate
# Protocol: The solvent used herein was dimethyl sulfoxide (DMSO, 100 µL/plate). The mixtures were preincubated at 37° C. for 20 minutes while shaking. […] Two plates per treatment were used.
recorded_endpoint: Number of revertant colonies WP2uvrA
I only need the number, thanks.

Here are 3 molecules together with their reported answers.
• Nc1cc(-c2cccc(OCC(F)(F)F)c2)n(-c2ccc(F)cc2)n1 [Metabolite E] = 20
• Nc1cc(-c2cccc(OC(F)(F)F)c2)n(-c2cccc(F)c2)n1 [Metabolite G] = 26
• CC(C)(OCc1cc(F)cc(-c2cc(N)nn2-c2ccc(F)cc2)c1)C(F)(F)F [Metabolite D] = 25

The molecule identified as Cc1cccc(-n2nc(N)cc2-c2cccc(OC(F)(F)F)c2)c1 [Metabolite H] registered its Number of revertant colonies WP2uvrA at 21

The molecule identified as Cc1ccc(-n2nc(N)cc2-c2cccc(OCC(F)(F)F)c2)cc1 [Metabolite F] registered its Number of revertant colonies WP2uvrA at 24

---

# Test system: Escherichia coli WP2uvrA
# measurement_protocol: Ames test (reverse mutation test), WP2uvrA
# Assay type: cell-based
# stated_conditions: WP2uvrA, +S9 mix, 1667 µg/plate
recorded_endpoint: Number of revertant colonies
I only need the number, thanks.

• Nc1cc(-c2cc(F)cc(OC(F)(F)F)c2)n(-c2cncc(C(F)(F)F)c2)n1 [Metabolite 5] = 21
• CC(C)(OCc1cc(F)cc(-c2cc(N)nn2-c2ccc(F)cc2)c1)C(F)(F)F [Metabolite D] = 28
• CC(C)(C)Oc1cc(F)cc(-c2cc(N)nn2C(F)(F)F)c1 [Metabolite 1] = 9

The compound identified as CC(C)(C)Oc1cccc(-c2cc(N)nn2-c2ccccc2)c1 [Metabolite C] registered its Number of revertant colonies at 12
